Reference source for all entries: paper PMC5473904

- Test system: MCF-7 human breast cancer cells
- methodSummary: MTT cytotoxicity, 72 h
- Type: cell-based
- measurementConditions: Homo sapiens, MCF7, 72 h, octanoic acid
attributeMeasured: IC50
# output: numeric value plus its unit

IN: Param request: IC50 | system MCF-7 human breast cancer cells | item CCCCCCCC(=O)O [OA, octanoic acid, reference compound]
OUT: 16 mM

---

- System: A2780cisR human ovarian carcinoma cells
- methodSummary: MTT cytotoxicity, 72 h
- Format: cell-based
- measurementConditions: MTT, 72 h, platinum complexes
pIC50 for assorted compounds
Scale for pIC50: -log10 of concentration given in mol/L; no unit attached.

Solved cases below.
CCCCCCCC(=O)[O][Pt]([NH2])([NH2])([Cl])([Cl])[O]C(C)=O [Pt(IV)AcOA, cis, cis, trans-[Pt(IV)(NH3)2Cl2AcOA]] | 6.43
N.N.[Cl][Pt][Cl] [cisplatin, reference compound] | 4.86
CC(=O)[O][Pt]([NH2])([NH2])([Cl])([Cl])[O]C(C)=O [Pt(IV)diAc, cis, cis, trans-[Pt(IV)(NH3)2Cl2(Ac)2]] | 4.66

We next turn to a different compound, shown below.
IN: Return pIC50 (reported value) for this compound: CCCCCCCC(=O)[O][Pt]([NH2])([NH2])([Cl])([Cl])[O]C(=O)CCCCCCC [Pt(IV)diOA, cis, cis, trans-[Pt(IV)(NH3)2Cl2(OA)2]]
OUT: 7.54
